Provide the recorded T1/2 for the entries that follow.
Recorded conditions: oral administration, 50 mg/kg, SD rats
Give bare numbers, in h.

| Molecule | Unit abbrev | T1/2 |
| --- | --- | --- |
| CN1CC[C@]23c4c5ccc(O)c4O[C@H]2[C@@H](OCCOCCO[C@H]2C=C[C@H]4[C@H]6Cc7ccc(O)c8c7[C@@]4(CCN6C)[C@H]2O8)C=C[C@H]3[C@H]1C5 [α-6-O-PEG2-(morphine)2] | h | 4.0 |
| CN1CC[C@]23c4c5ccc(O)c4O[C@H]2[C@@H](OCCOCCOCCOCCOCCOCCO[C@H]2C=C[C@H]4[C@H]6Cc7ccc(O)c8c7[C@@]4(CCN6C)[C@H]2O8)C=C[C@H]3[C@H]1C5 [α-6-O-PEG6-(morphine)2] | h | 4.8 |
| CN1CC[C@]23c4c5ccc(O)c4O[C@H]2[C@@H](OCCO[C@H]2C=C[C@H]4[C@H]6Cc7ccc(O)c8c7[C@@]4(CCN6C)[C@H]2O8)C=C[C@H]3[C@H]1C5 [α-6-O-PEG1-(morphine)2] | h | 11 |

# evaluate next
GET /values?readout=T1/2&item= CN1CC[C@]23c4c5ccc(O)c4O[C@H]2[C@@H](OCCOCCOCCOCCOCCO[C@H]2C=C[C@H]4[C@H]6Cc7ccc(O)c8c7[C@@]4(CCN6C)[C@H]2O8)C=C[C@H]3[C@H]1C5 [α-6-O-PEG5-(morphine)2]
7.8

----------
Recorded conditions: oral administration, 50 mg/kg, SD rats
Provide the recorded AUClast for the entries that follow.
Give bare numbers, in ng·h/mL.

Known results for molecules:
| Molecule | Unit abbrev | AUClast |
| --- | --- | --- |
| CN1CC[C@]23c4c5ccc(O)c4O[C@H]2[C@@H](OCCOCCOCCOCCOCCOCCOCCOCCOCCO[C@H]2C=C[C@H]4[C@H]6Cc7ccc(O)c8c7[C@@]4(CCN6C)[C@H]2O8)C=C[C@H]3[C@H]1C5 [α-6-O-PEG9-(morphine)2] | ng·h/mL | 11 |
| CN1CC[C@]23c4c5ccc(O)c4O[C@H]2[C@@H](OCCOCCOCCOCCOCCO[C@H]2C=C[C@H]4[C@H]6Cc7ccc(O)c8c7[C@@]4(CCN6C)[C@H]2O8)C=C[C@H]3[C@H]1C5 [α-6-O-PEG5-(morphine)2] | ng·h/mL | 129 |

# evaluate next
GET /values?readout=AUClast&item= CN1CC[C@]23c4c5ccc(O)c4O[C@H]2[C@@H](OCCOCCOCCOCCOCCOCCO[C@H]2C=C[C@H]4[C@H]6Cc7ccc(O)c8c7[C@@]4(CCN6C)[C@H]2O8)C=C[C@H]3[C@H]1C5 [α-6-O-PEG6-(morphine)2]
73

----------
Recorded conditions: intravenous administration, 10 mg/kg, SD rats
Measurement name: Vss (L/kg)
Give bare numbers, in L/kg.

| Structure smiles | Recorded measurement |
| --- | --- |
| CN1CC[C@]23c4c5ccc(O)c4O[C@H]2[C@@H](OCCOCCOCCOCCOCCOCCO[C@H]2C=C[C@H]4[C@H]6Cc7ccc(O)c8c7[C@@]4(CCN6C)[C@H]2O8)C=C[C@H]3[C@H]1C5 | 38.6 |
| CN1CC[C@]23c4c5ccc(O)c4O[C@H]2[C@@H](OCCOCCOCCOCCOCCOCCOCCOCCO[C@H]2C=C[C@H]4[C@H]6Cc7ccc(O)c8c7[C@@]4(CCN6C)[C@H]2O8)C=C[C@H]3[C@H]1C5 | 84.7 |

GET /values?readout=Vss&item= CN1CC[C@]23c4c5ccc(O)c4O[C@H]2[C@@H](OCCOCCOCCOCCOCCO[C@H]2C=C[C@H]4[C@H]6Cc7ccc(O)c8c7[C@@]4(CCN6C)[C@H]2O8)C=C[C@H]3[C@H]1C5
55.2
